Recorded pIC50, one value per entry.
biological target: PRMT5/MEP50 (Homo sapiens (Human)); test: PRMT5 Biochemical Assay (PRMT5/MEP50 enzyme assay on peptide substrate, 3H-SAM Flashplate)
Sequence (O14744 other isoform, or with tags, fused parts or gaps): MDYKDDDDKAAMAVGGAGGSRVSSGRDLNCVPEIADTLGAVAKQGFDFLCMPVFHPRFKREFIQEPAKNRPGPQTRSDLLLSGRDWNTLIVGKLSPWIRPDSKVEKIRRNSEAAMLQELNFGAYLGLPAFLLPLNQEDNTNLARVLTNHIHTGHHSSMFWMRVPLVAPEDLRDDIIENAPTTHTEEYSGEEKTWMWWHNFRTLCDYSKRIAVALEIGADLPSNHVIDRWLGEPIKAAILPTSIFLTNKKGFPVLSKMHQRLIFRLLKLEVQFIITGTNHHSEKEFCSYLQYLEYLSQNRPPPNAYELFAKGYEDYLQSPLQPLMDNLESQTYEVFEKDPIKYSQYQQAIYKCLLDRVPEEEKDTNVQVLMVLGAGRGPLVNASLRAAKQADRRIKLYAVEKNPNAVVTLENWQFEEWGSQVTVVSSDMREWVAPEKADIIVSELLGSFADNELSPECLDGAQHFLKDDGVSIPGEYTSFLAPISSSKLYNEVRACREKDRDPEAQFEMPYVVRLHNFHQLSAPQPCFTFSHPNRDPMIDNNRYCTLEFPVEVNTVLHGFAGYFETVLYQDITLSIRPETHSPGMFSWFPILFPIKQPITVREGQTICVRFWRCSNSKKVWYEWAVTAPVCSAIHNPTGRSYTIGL
Sequence (Q9BQA1 other isoform, or with tags, fused parts or gaps partner): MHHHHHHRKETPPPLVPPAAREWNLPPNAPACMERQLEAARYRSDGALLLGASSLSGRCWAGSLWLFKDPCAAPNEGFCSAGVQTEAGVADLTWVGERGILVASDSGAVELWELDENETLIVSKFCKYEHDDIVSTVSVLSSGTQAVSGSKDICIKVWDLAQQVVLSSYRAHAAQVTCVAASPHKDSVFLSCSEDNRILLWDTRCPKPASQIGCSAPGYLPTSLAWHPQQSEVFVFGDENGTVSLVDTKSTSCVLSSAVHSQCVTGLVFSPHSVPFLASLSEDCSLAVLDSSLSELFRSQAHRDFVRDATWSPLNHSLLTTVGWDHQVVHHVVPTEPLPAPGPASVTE
pIC50: −log10 of the molar value.

The examples below pair each entry with its known result.
compound="Cn1cnc2ccc(-c3cccc(OCC(O)CN4CCc5ccccc5C4=O)c3)cc21 (centres unmarked) [Compound 225]" subject_of_test="PRMT5/MEP50 (Homo sapiens (Human))" assay_result="< 4.40"
compound="CN1CCC(n2cnc3ccc(-c4cccc(OCC(O)CN5CCc6ccccc6C5)c4)cc32)C1 (centres unmarked) [Compound 219]" subject_of_test="PRMT5/MEP50 (Homo sapiens (Human))" assay_result="> 7.00"
compound="Cn1cnc2ccc(-c3ccnc(NC[C@H](O)CN4CCc5ccccc5C4)c3)cc21 [Compound 275]" subject_of_test="PRMT5/MEP50 (Homo sapiens (Human))" assay_result="> 7.00"

Prompt line: Fill blank: measured pIC50 of the compound Cn1ncc2cc(-c3cccc(OCC(O)CN4CCc5ccccc5C4)c3)ccc21 (centres unmarked) [Compound 108] is ____.
Response line: > 7.00

Prompt line: Fill blank: measured pIC50 of the compound OC(COCC1CCCCO1)CN1CCc2ccccc2C1 (centres unmarked) [Compound 304] is ____.
Response line: < 4.40

###

target: PRMT5/MEP50 (Homo sapiens (Human)); test: PRMT5 Biochemical Assay (PRMT5/MEP50 enzyme assay on peptide substrate, 3H-SAM Flashplate)
Endpoint Label: IC50

The examples below pair each entry with its known result.
molecule="OC(COC1CCCNC1)CN1CCc2ccccc2C1 (stereo not drawn) [Compound 297]" endpoint_label=IC50 assay_result="> 40000 nM"
molecule="CN1CCC(n2cnc3ccc(-c4cccc(OCC(O)CN5CCc6ccccc6C5)c4)cc32)CC1 (stereo not drawn) [Compound 221]" endpoint_label=IC50 assay_result="< 100 nM"
molecule="Cn1ccc2ccc(-c3ccnc(NCC(O)CN4CCc5ccccc5C4)c3)cc21 (stereo not drawn) [Compound 227]" endpoint_label=IC50 assay_result="< 100 nM"

# evaluate next
Prompt line: Fill blank: measured IC50 of the molecule OC(CNc1cc(-c2ccc3ncn(C4CCOCC4)c3c2)ccn1)CN1CCc2ccccc2C1 (stereo not drawn) [Compound 251] is ____.
Response line: < 100 nM

###

target: PRMT5/MEP50 (Homo sapiens (Human)); test: PRMT5 Biochemical Assay (PRMT5/MEP50 enzyme assay on peptide substrate, 3H-SAM Flashplate)
Recorded IC50, one value per entry.

The examples below pair each entry with its known result.
compound="CNC(=O)Cn1ccc2cnc(-c3ccnc(NCC(O)CN4CCc5ccccc5C4)c3)nc21 (centres unmarked) [Compound 245]" endpoint_label=IC50 assay_result="< 100 nM"
compound="Cn1cnc2ccc(-c3ccnc(NCC(O)CN4CCc5ccccc5C4)c3)cc21 (centres unmarked) [Compound 118]" endpoint_label=IC50 assay_result="< 100 nM"

Prompt line: Request - read-out IC50 | tested on PRMT5/MEP50 (Homo sapiens (Human)) | compound O=C(Cn1ccc2cnc(-c3ccnc(NCC(O)CN4CCc5ccccc5C4)c3)nc21)N1CCCCC1 (centres unmarked) [Compound 246]
Response line: < 100 nM

Prompt line: Request - read-out IC50 | tested on PRMT5/MEP50 (Homo sapiens (Human)) | compound COc1cc2c(cc1OC)CN(CC(O)COc1cccc(-c3ccc4ncn(C)c4c3)c1)CC2 (centres unmarked) [Compound 146]
Response line: > 40000 nM

Prompt line: Request - read-out IC50 | tested on PRMT5/MEP50 (Homo sapiens (Human)) | compound Cn1cc2ccc(-c3cccc(NCC(O)CN4CCc5ccccc5C4)c3)nc2n1 (centres unmarked) [Compound 261]
Response line: < 100 nM

Prompt line: Request - read-out IC50 | tested on PRMT5/MEP50 (Homo sapiens (Human)) | compound Cn1ncc2ccc(-c3ccnc(NCC(O)CN4CCc5ccccc5C4)c3)cc21 (centres unmarked) [Compound 226]
Response line: < 100 nM
